Recorded values, source ChEMBL document CHEMBL5046241.

target: 5-hydroxytryptamine receptor 1A (Homo sapiens, UniProt P08908)
pEC50: −log10 of the molar value.
Overview of recorded pEC50 for various compounds

The cases that follow already have their pEC50 on record.
1) N#Cc1ccc2c(CCCCN3CCN(c4ccc(C(=O)CCC5CCN(Cc6ccccc6)CC5)cc4)CC3)c[nH]c2c1; < 6.00
2) N#Cc1ccc2[nH]cc(CN3CCN(c4ccc(C(=O)CCC5CCN(Cc6ccccc6)CC5)cc4)CC3)c2c1; < 6.00

With those in mind, consider the next compound.
Task: Query: pEC50; subject: N#Cc1ccc2[nH]cc(CCCCN3CCN(c4ccc(C(=O)CCC5CCN(Cc6ccc7ccccc7c6)CC5)cc4)CC3)c2c1
Output: < 6.00

###

The following molecules each carry a recorded IC50 for Sodium-dependent serotonin transporter (Homo sapiens).
Answer format: numeric, µM implied, no suffix.

The cases that follow already have their IC50 on record.
1. N#Cc1ccc2[nH]cc(CN3CCN(c4ccc(C(=O)CCC5CCN(Cc6cc[nH]c6)CC5)cc4)CC3)c2c1; 0.0121
2. N#Cc1ccc2[nH]cc(CCN3CCN(c4ccc5c(c4)CC(CC4CCN(Cc6ccccc6)CC4)C5=O)CC3)c2c1 (stereo not drawn); 0.00881
3. N#Cc1ccc2[nH]cc(CCCCN3CCN(c4ccc(C(=O)CCC5CCN(Cc6cc[nH]c6)CC5)cc4)CC3)c2c1; 0.00825
4. N#Cc1ccc2[nH]cc(CCCN3CCN(c4ccc(C(=O)CCC5CCN(Cc6ccsc6)CC5)cc4)CC3)c2c1; 0.0411
5. N#Cc1ccc2[nH]cc(CCN3CCN(c4ccc(C(=O)CCC5CCN(Cc6ccccc6)CC5)cc4)CC3)c2c1; 0.0323
6. N#Cc1ccc2[nH]cc(CCCCN3CCN(c4ccc(C(=O)CCC5CCN(Cc6ccoc6)CC5)cc4)CC3)c2c1; 0.0357
7. O=C(CCC1CCN(Cc2ccccc2)CC1)c1ccc(N2CCN(CCCCc3c[nH]c4ccc(Cl)cc34)CC2)cc1; 0.159
8. N#Cc1ccc2[nH]cc(CCCCN3CCN(c4ccc(C(=O)CCC5CCN(Cc6ccsc6)CC5)cc4)CC3)c2c1; 0.0201
9. N#Cc1ccc2[nH]cc(CN3CCN(c4ccc(C(=O)CCC5CCN(Cc6ccccc6)CC5)cc4)CC3)c2c1; 0.0545
10. N#Cc1ccc2[nH]cc(CCCN3CCN(c4ccc(C(=O)CCC5CCN(Cc6cc[nH]c6)CC5)cc4)CC3)c2c1; 0.0149

Task: Query: IC50; subject: N#Cc1ccc2[nH]cc(CCCN3CCN(c4ccc5c(c4)CC(CC4CCN(Cc6ccccc6)CC4)C5=O)CC3)c2c1 (stereo not drawn)
Output: 0.0184

Task: Query: IC50; subject: N#Cc1ccc2[nH]cc(CCN3CCN(c4ccc(C(=O)CCC5CCN(Cc6cc[nH]c6)CC5)cc4)CC3)c2c1
Output: 0.00841

###

target: Cholinesterase (Mus musculus)
Sequence (Q03311 whole entry): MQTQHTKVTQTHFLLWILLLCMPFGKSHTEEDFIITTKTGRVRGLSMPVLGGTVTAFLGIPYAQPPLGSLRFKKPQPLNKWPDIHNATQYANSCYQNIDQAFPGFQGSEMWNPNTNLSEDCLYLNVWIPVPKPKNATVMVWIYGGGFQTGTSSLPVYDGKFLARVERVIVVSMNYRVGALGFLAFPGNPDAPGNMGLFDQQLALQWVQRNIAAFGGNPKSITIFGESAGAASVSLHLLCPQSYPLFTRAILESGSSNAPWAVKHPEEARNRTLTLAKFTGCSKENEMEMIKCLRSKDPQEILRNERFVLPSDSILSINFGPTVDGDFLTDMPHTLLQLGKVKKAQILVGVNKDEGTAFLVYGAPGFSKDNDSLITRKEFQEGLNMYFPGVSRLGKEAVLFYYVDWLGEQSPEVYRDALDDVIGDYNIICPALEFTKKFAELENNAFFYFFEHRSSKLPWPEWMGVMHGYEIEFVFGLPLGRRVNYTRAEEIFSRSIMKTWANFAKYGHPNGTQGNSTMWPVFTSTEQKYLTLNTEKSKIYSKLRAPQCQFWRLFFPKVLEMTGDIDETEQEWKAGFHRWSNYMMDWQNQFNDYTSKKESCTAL
readout_type: IC50
Reply with the number, then its unit.

The cases that follow already have their IC50 on record.
1. N#Cc1ccc2[nH]cc(CN3CCN(c4ccc(C(=O)CCC5CCN(Cc6ccccc6)CC5)cc4)CC3)c2c1; 979 nM
2. O=C(CCC1CCN(Cc2ccccc2)CC1)c1ccc(N2CCN(CCCCc3c[nH]c4ccc(Cl)cc34)CC2)cc1; 2720 nM
3. N#Cc1ccc2[nH]cc(CCN3CCN(c4ccc(C(=O)CCC5CCN(Cc6cccnc6)CC5)cc4)CC3)c2c1; 6750 nM

Task: Query: IC50; subject: N#Cc1ccc2[nH]cc(CCCN3CCN(c4ccc5c(c4)CC(CC4CCN(Cc6ccccc6)CC4)C5=O)CC3)c2c1 (stereo not drawn)
Output: 551 nM

Task: Query: IC50; subject: N#Cc1ccc2[nH]cc(CCCCN3CCN(c4ccc(C(=O)CCC5CCN(Cc6cccnc6)CC5)cc4)CC3)c2c1
Output: 4590 nM

Task: Query: IC50; subject: N#Cc1ccc2[nH]cc(CCCCN3CCN(c4ccc(C(=O)CCC5CCN(CC6CC6)CC5)cc4)CC3)c2c1
Output: 743 nM

Task: Query: IC50; subject: O=C(CCC1CCN(Cc2ccccc2)CC1)c1ccc(N2CCN(CCCCc3c[nH]c4cc(Cl)c(Cl)cc34)CC2)cc1
Output: 5810 nM

Task: Query: IC50; subject: N#Cc1ccc2[nH]cc(CCCCN3CCN(c4ccc5c(c4)C(=O)C(CC4CCN(Cc6ccccc6)CC4)C5)CC3)c2c1 (stereo not drawn)
Output: 325 nM

Task: Query: IC50; subject: N#Cc1ccc2[nH]cc(CCN3CCN(c4ccc5c(c4)CC(CC4CCN(Cc6ccccc6)CC4)C5=O)CC3)c2c1 (stereo not drawn)
Output: 638 nM

###

Overview of recorded EC50 for various molecules
target: 5-hydroxytryptamine receptor 1A (Homo sapiens, UniProt P08908)
Sequence (P08908 whole entry): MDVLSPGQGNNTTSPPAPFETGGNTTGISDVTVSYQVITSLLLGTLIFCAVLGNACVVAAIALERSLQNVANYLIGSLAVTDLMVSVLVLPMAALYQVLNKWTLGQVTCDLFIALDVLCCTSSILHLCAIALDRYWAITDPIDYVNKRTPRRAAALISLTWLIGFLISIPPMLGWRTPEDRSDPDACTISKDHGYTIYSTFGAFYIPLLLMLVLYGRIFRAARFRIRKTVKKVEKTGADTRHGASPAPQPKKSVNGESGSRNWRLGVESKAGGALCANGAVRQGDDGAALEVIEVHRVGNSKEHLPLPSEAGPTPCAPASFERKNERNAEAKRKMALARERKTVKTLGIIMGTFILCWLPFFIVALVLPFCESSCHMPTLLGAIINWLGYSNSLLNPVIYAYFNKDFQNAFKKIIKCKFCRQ

Task: Query: EC50; subject: N#Cc1ccc2[nH]cc(CN3CCN(c4ccc(C(=O)CCC5CCN(Cc6ccsc6)CC5)cc4)CC3)c2c1
Output: > 1000 nM

Task: Query: EC50; subject: N#Cc1ccc2[nH]cc(CN3CCN(c4ccc(C(=O)CCC5CCN(Cc6cccnc6)CC5)cc4)CC3)c2c1
Output: > 1000 nM

Task: Query: EC50; subject: N#Cc1ccc2[nH]cc(CCN3CCN(c4ccc(C(=O)CCC5CCN(Cc6cc[nH]c6)CC5)cc4)CC3)c2c1
Output: > 1000 nM

###

target: Acetylcholinesterase (Mus musculus, UniProt P21836)
Sequence (P21836 whole entry): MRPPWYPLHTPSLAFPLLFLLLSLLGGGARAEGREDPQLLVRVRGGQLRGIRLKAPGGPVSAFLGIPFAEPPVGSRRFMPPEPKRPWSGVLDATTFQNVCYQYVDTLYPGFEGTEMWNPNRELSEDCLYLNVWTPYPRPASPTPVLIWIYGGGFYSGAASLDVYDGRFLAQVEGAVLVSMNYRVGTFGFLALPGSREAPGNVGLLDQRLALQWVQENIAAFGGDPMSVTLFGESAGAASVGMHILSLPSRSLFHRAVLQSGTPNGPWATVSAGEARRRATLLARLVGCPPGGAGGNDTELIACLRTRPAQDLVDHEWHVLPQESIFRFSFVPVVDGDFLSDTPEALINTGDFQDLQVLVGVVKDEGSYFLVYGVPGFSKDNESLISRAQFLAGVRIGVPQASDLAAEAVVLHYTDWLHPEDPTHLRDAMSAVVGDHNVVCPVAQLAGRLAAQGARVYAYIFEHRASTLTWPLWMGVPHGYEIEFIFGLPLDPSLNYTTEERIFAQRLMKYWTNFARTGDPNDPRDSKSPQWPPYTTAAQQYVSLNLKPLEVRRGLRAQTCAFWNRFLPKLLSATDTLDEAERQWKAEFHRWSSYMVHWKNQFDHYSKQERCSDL
readout_type: IC50 (nM)
Answer format: numeric, nM implied, no suffix.

The cases that follow already have their IC50 on record.
1. N#Cc1ccc2[nH]cc(CCCCN3CCN(c4ccc5c(c4)C/C(=C\C4CCN(Cc6ccccc6)CC4)C5=O)CC3)c2c1; 30.7
2. N#Cc1ccc2[nH]cc(CCCCN3CCN(c4cccc5c4C(=O)C(CC4CCN(Cc6ccccc6)CC4)C5)CC3)c2c1 (centres undefined); 709

Task: Query: IC50; subject: N#Cc1ccc2[nH]cc(CCCCN3CCN(c4ccc5oc(C(N)=O)cc5c4)CC3)c2c1
Output: 21300

Task: Query: IC50; subject: N#Cc1ccc2[nH]cc(CCCCN3CCN(c4ccc(C(=O)CCC5CCN(Cc6ccccc6)CC5)cc4)CC3)c2c1
Output: 2.29

Task: Query: IC50; subject: N#Cc1ccc2[nH]cc(CCCN3CCN(c4ccc(C(=O)CCC5CCN(Cc6ccsc6)CC5)cc4)CC3)c2c1
Output: 1.85

Task: Query: IC50; subject: N#Cc1ccc2[nH]cc(CCCCN3CCN(c4ccc5c(c4)C(=O)C(CC4CCN(Cc6ccccc6)CC4)C5)CC3)c2c1 (centres undefined)
Output: 37.4

Task: Query: IC50; subject: N#Cc1ccc2[nH]cc(CCN3CCN(c4ccc(C(=O)CCC5CCN(Cc6cccnc6)CC5)cc4)CC3)c2c1
Output: 7.7

Task: Query: IC50; subject: N#Cc1ccc2[nH]cc(CN3CCN(c4ccc(C(=O)CCC5CCN(Cc6cccnc6)CC5)cc4)CC3)c2c1
Output: 9.97

Task: Query: IC50; subject: N#Cc1ccc2[nH]cc(CCN3CCN(c4ccc(C(=O)CCC5CCN(Cc6cc[nH]c6)CC5)cc4)CC3)c2c1
Output: 3.54

###

target: Acetylcholinesterase (Mus musculus, UniProt P21836)
pIC50: −log10 of the molar value.
Mark false for pIC50 values under 8, and true for everything at or above.

Task: Could you tell me if the measured pIC50 of Cc1cccc(CN2CCC(CCC(=O)c3ccc(N4CCN(CCCCc5c[nH]c6ccc(C#N)cc56)CC4)cc3)CC2)c1 reaches 8 or more?
Output: false

###

The following compounds each carry a recorded IC50 for Sodium-dependent serotonin transporter (Homo sapiens, UniProt P31645).
Answer format: numeric, µM implied, no suffix.

1. N#Cc1ccc2[nH]cc(CCN3CCN(c4ccc(C(=O)CCC5CCN(Cc6ccsc6)CC5)cc4)CC3)c2c1; 0.0335

Task: Query: IC50; subject: N#Cc1ccc2[nH]cc(CCCN3CCN(c4ccc(C(=O)CCC5CCN(Cc6ccccc6)CC5)cc4)CC3)c2c1
Output: 0.0399

Task: Query: IC50; subject: N#Cc1ccc2[nH]cc(CCCCN3CCN(c4ccc(C(=O)CCC5CCN(Cc6cccnc6)CC5)cc4)CC3)c2c1
Output: 0.0162

Task: Query: IC50; subject: N#Cc1ccc2[nH]cc(CCCCN3CCN(c4ccc(C(=O)CCC5CCN(Cc6ccccc6)CC5)cc4)CC3)c2c1
Output: 0.0292
